The values you see were collected from patent US20220125947A1.

# assayed_target: Vg9/Vd1 TCR on SKW3 cells (UniProt Q99603)
# Sequence (Q99603 21-122): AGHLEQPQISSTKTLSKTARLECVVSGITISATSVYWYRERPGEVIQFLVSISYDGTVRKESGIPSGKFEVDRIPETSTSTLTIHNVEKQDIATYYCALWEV
# protocol_notes: flow cytometry, dose-response binding at 37° C. on SKW3 cells expressing Vg9/Vd1
measured_metric: Max. Activity (fold over background)
When you answer, write just the number.

Exercise: // fetch Max. Activity (fold over background) given entry VG9B66 (antibody, human IgG1, kappa, V domains shown) VH: EVQLVESGGGLVKPGGSLRLSCAASGFTFSTYTMNWVRQAPGKGLEWVSSISSSSFYMDYADSVKGRFTISRDNAKNSLSLLMNSLRAEDTAVYYCARDGDIVATIRGSFDYWGQGTMVTVSS VL: EIVLTQSPSSLSTSVGDRVTITCRASQDITNFLAWYQQKPGKLPKLLIYTASTLQSGVPSRFSGSASGPDFTLTISSLQPEDVATYYCQKYNSAPFTFGPGTKVEIKR
Solution: 179

Exercise: // fetch Max. Activity (fold over background) given entry VG9B21 (antibody, human IgG1, kappa, V domains shown) VH: EVQLLESGGGLVKPGGSLRLSCAASGFSFSNYDMNWVRQAPRKGLEWVSSISSSSHYIYYADSLKGRFTISRDNAKNSLFLQMNSLRAEDTAVYYCARDRGVTTDYYYYALDVWGQGTMVTVSS VL: DIVMTQSPSSLSASVGDRVTITCRASQGIYNYLAWYQQKPGNVPKLLIYAASTLQSGVPSRFSGSGSGTDFSLTISSLQPEDFTTYYCQKYNRAPFTFGPGTKVDIKR
Solution: 121

Exercise: // fetch Max. Activity (fold over background) given entry VG9B162 (antibody, human IgG1, lambda, V domains shown) VH: QVQLVESGAEVTKPGASVKVSCKASGYTFTGDYMHWVRQAPGQGLEWMGWINPNSGYTNYAQKFQGRVTMTRDTSISTAYMELSRLRSDDTAVYYCAREGDAFDVWGQGTMVTVSS VL: QLVLTQSSSASGSPGQSVTISCTGTSSDVGGYNYVSWYQQHPGKAPKLMIYEVSKRPSGVPDRFSGSKSGNTASLTVSGLQAEDEADYYCNSYAGSNNFEVFGGGTKLTVLG
Solution: 249
